Where do the numbers come from? From PubChem BioAssay.

- protocol-summary: serotonin-gated TRPC4 signal block – cell-based, second counter screen, HEK293 TRPC4/5HT1a, Fluo-4, counter-screen for TRPC4 inhibitor project, confirmation (AID 434978)
- conditions: Fluo-4 calcium flux, at 10 µM, serotonin added to trigger calcium flux
Active and inactive are the calls of the source.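 Rule for the calls: active = primary screen active whose calcium signal fell more than 3 SD beyond the full-serotonin control mean in both duplicate plates; inactive = the rest.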
Outcomes: Yes for active, No for inactive

compound: C=CCOc1ccc(Br)cc1CNC(C)(C)CO
category: Yes

compound: COC(=O)CSc1nnc2n(-c3ccc(OC)cc3)c(=O)c3c4c(sc3n12)CCCCC4
category: Yes

compound: CCc1ccc(OCC(=O)NC2CCCCC2)c(Br)c1
category: No

compound: CC(OC(=O)CNC(=O)c1ccccc1F)C(=O)Nc1nc(-c2ccccc2)cs1 (stereo unspecified)
category: Yes

compound: O=C(CN1CCCCC1)Nc1ccccc1Oc1ccccc1
category: Yes

compound: COc1ccc2c(Cl)c(-c3nnc4n3CCCCC4)sc2c1
category: No

compound: Cc1ccc(C(=O)OCCN2CCN(c3ncc(C(F)(F)F)cc3Cl)CC2)cc1
category: No

compound: Cc1ccc(C(=O)NNC(=S)NC(=O)COc2ccccc2)cc1
category: No

compound: Cc1ccc(NC(=O)c2cc(N3C(=O)C=CC3=O)ccc2N2CCOCC2)cc1Cl
category: No

compound: CCCCN(C)C(=O)Cn1ncc2c3ccccc3n(CCC)c2c1=O
category: No

compound: OC(CNCCC(c1ccccc1)c1ccccc1)COc1ccccc1 (stereo unspecified)
category: No
